Reference source: patent US20090221559A1

# Subject Of Test: HCV NS5B polymerase (His-tagged, C-terminal 21 amino acid deleted NS5B, HC-J4) (Hepatitis C virus genotype 1b)
# Construct: The cDNA encoding NS5B amino acid 1-570 (HC-J4, genotype 1b); His tag (His6, from pET-21b) (C); made in house; host or cells: E. coli BL21 (DE3)
# Sequence (O92972 2417-3000, looked up, stated change not applied): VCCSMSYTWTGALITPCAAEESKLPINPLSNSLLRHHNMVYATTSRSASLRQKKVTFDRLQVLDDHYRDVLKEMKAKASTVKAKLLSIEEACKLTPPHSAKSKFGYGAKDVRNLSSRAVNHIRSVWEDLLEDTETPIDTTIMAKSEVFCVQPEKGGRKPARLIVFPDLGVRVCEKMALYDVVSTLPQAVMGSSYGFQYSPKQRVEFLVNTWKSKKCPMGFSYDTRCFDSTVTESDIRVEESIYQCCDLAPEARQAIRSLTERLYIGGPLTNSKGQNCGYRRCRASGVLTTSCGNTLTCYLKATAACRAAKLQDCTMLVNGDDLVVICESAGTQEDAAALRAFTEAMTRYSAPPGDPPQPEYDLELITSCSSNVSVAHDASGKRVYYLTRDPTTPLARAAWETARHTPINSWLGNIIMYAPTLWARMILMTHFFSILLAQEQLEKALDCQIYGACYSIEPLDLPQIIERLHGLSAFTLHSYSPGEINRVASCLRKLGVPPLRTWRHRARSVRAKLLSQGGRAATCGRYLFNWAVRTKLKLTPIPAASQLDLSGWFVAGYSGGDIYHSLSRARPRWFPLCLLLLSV
# Experiment Notes: NS5b polymerase assay (biochemical RdRp assay, 3H-GTP incorporation, SPA beads)
# Set-up: species or system HCV genotype 1b
# Measurement Context: NS5B Polymerase Assay IC50, 200 nM enzyme, 3H-GTP incorporation, 2 h at 25° C.

# Compound, Comparison Operator, IC50, µM
records = [
    ("CC1(C)CC(=O)C2=C(C1)Nc1ccccc1N(C(=O)N1CCCCC1)C2c1ccc(Cl)cc1Cl (stereo not shown) [compound 155]", ">", 133),
    ("CC1(C)CC(=O)C2=C(C1)Nc1ccccc1N(C(=O)C1CC1)C2c1ccc(Cl)cc1Cl (stereo not shown) [compound 53]", "=", 19.7),
    ("COc1ccccc1C1C2=C(CC(C)(C)CC2=O)Nc2ccccc2N1C(C)=O (stereo not shown) [compound 128]", ">", 42.7),
    ("CC1(C)CC(=O)C2=C(C1)Nc1ccccc1N(C(=O)C(F)(F)F)C2c1ccc(OCc2ccccc2)cc1 (stereo not shown) [compound 52]", ">", 42.7),
    ("CC(=O)N1c2c(Br)cccc2NC2=C(C(=O)CC(C)(C)C2)C1c1ccc(Cl)cc1Cl (stereo not shown) [compound 311]", "=", 13.3),
    ("CCCOc1ccc(C2C3=C(CC(C)(C)CC3=O)Nc3ccccc3N2C(C)=O)cc1OC (stereo not shown) [compound 129]", ">", 42.7),
    ("CCC(=O)N1c2ccccc2NC2=C(C(=O)CC(C)(C)C2)C1c1ccc(C(F)(F)F)cc1 (stereo not shown) [compound 55]", "=", 33.3),
    ("CC(=O)N1c2ccccc2NC2=C(C(=O)CC(C)(C)C2)C1c1ccc(C)o1 (stereo not shown) [compound 283]", ">", 42.7),
    ("CC(C)C(=O)N1c2ccccc2NC2=C(C(=O)CC(C)(C)C2)C1c1cccnc1 (stereo not shown) [compound 259]", "=", 29.5),
    ("CC1(C)CC(=O)C2=C(C1)Nc1ccccc1N(C(=O)c1ccccc1)C2c1cccs1 (stereo not shown) [compound 269]", ">", 33.3),
]
